The values you see were collected from the Human Domainome abundance scans (Beltran et al. 2025).

B1: Chromodomain-helicase-DNA-binding protein 4, residues 623 to 675; numbered along this chain, Q14839 (parent)
chain: MIHRILNHSVDKKGHVHYLIKWRDLPYDQASWESEDVEIQDYDLFKQSYWNHR

- Variants of: B1
- Test Summary: abundance fitness (aPCA) (normalised: wild type 0, dead -1); higher = more abundant; growth selection in yeast, the domain comes from the species named
- Settings: Homo sapiens
Class boundaries, taken from values of abundance fitness, are as follows: class 0 = under -0.8, class 1 = from -0.8 up to -0.3, class 2 = -0.3 and over

V16H | class 2
S31Y | class 1

Switching to the query record.
Category of H17Q , please.
class 2
